System: CCD18 Co normal colon cells
METHOD: Cell viability assay
Assay type: cell-based
EXPERIMENTAL CONDITIONS: Homo sapiens, CCD-18Co, 24 h, read-out: IC50 CCD18 Co
READOUT KIND: IC50

Exercise: For CCD18 Co normal colon cells, provide IC50 of CC(=O)O[C@H]1C(=O)O[C@@H]2C[C@H]3C(C)=CC(=O)[C@@H](O)[C@]3(C)[C@H]3[C@]4(O)OC[C@]32[C@@H]1[C@@H](C)[C@H]4O [(−)-Holacanthone, (−)-holacanthone] please.
Solution: < 5 µM
